mortality at 600 mg/kg listing for selected compounds.
Test system: Mythimna separata
Assay Notes: Stomach toxicity against fourth-instar larval stage of Mythimna separata (Oriental armyworm) in compound-pretreated corn leaves assessed as mortality at 600 mg/kg at 25 +/-1 degC after 4 days
Format: functional
Report as a plain number; the unit % is understood.

Reference set, count: 3
[[record]]
chem_smiles = "Cc1cc(C)c(C2=C(OC(=O)C(=O)Oc3ccc(C(C)(C)C)cc3)C3(CCCC3)OC2=O)c(C)c1"
experimental_endpoint = "mortality at 600 mg/kg"
measured = 80

[[record]]
chem_smiles = "CCOC(=O)C(=O)OC1=C(c2c(C)cc(C)cc2C)C(=O)OC12CCCC2"
experimental_endpoint = "mortality at 600 mg/kg"
measured = 80

[[record]]
chem_smiles = "CCN(C(=O)C(=O)OC1=C(c2c(C)cc(C)cc2C)C(=O)OC12CCCC2)c1ccc(C(F)(F)F)cc1"
experimental_endpoint = "mortality at 600 mg/kg"
measured = 50


What does the record list as mortality at 600 mg/kg for `Cc1cc(C)c(C2=C(OC(=O)C(=O)Oc3ccc(Cl)cc3)C3(CCCC3)OC2=O)c(C)c1` ?
70

Next: `CCN(C(=O)C(=O)OC1=C(c2c(C)cc(C)cc2C)C(=O)OC12CCCC2)c1ccc(Br)cc1`
80

Entry to check: `CCN(C(=O)C(=O)OC1=C(c2c(C)cc(C)cc2C)C(=O)OC12CCCC2)c1ccccc1`
40

For `Cc1cc(C)c(C2=C(OC(=O)C(=O)N3CCCCC3)C3(CCCC3)OC2=O)c(C)c1` then?
40

How about `Cc1cc(C)c(C2=C(OC(=O)C(=O)N(C(C)C)C(C)C)C3(CCCC3)OC2=O)c(C)c1` ?
50

====

Tested on: Ostrinia nubilalis
Assay Notes: Stomach toxicity against third-instar larval stage of Ostrinia nubilalis (European corn borer) in corn leaves assessed as mortality at 600 mg/kg at 25 +/-1 degC treated for 3-5 secs before larval infestation after 4 days by leaf-dip method
Assay type: functional
Run Parameters: 96 h
We use 40% as the dividing line for mortality at 600 mg/kg: on or above the line is rule met, below is rule not met.

The following compounds have reported results that may help.
[[record]]
chem_smiles = "Cc1cc(C)c(C2=C(OC(=O)C(=O)Oc3ccc(C(C)(C)C)cc3)C3(CCCC3)OC2=O)c(C)c1"
category_label = "rule not met"

[[record]]
chem_smiles = "Cc1cc(C)c(C2=C(OC(=O)C(=O)N(C(C)C)C(C)C)C3(CCCC3)OC2=O)c(C)c1"
category_label = "rule met"


Determine whether measured mortality at 600 mg/kg meets or exceeds 40% for `Cc1cc(C)c(C2=C(OC(=O)C(=O)N3CCCC3)C3(CCCC3)OC2=O)c(C)c1`
rule not met

Next entry: `Cc1cc(C)c(C2=C(OC(=O)CC(C)(C)C)C3(CCCC3)OC2=O)c(C)c1`
rule met

Queued: `Cc1cc(C)c(C2=C(OC(=O)C(=O)Oc3ccc(Cl)cc3)C3(CCCC3)OC2=O)c(C)c1`
rule met

Thanks! And `C#CCOC(=O)C(=O)OC1=C(c2c(C)cc(C)cc2C)C(=O)OC12CCCC2` ?
rule met

Subsequent entry: `CCN(CC)C(=O)C(=O)OC1=C(c2c(C)cc(C)cc2C)C(=O)OC12CCCC2`
rule not met

====

Tested on: Tetranychus cinnabarinus
Assay Notes: Acaricidal activity against larvae of Tetranychus cinnabarinus (carmine spider mite) in sieva bean leaves assessed as mortality at 10 mg/kg at 25 +/-1 degC treated for 3 secs measured after 4 days
Assay type: functional
Run Parameters: 96 h
Experimental Endpoint: mortality at 10 mg/kg (%)
State just the number; it will be interpreted in %.

Fill in: mortality at 10 mg/kg of `CCN(C(=O)C(=O)OC1=C(c2c(C)cc(C)cc2C)C(=O)OC12CCCC2)c1ccccc1` is ___
100

What about `Cc1cc(C)c(C2=C(OC(=O)CC(C)(C)C)C3(CCCC3)OC2=O)c(C)c1` ?
100

Same read-out for `Cc1cc(C)c(C2=C(OC(=O)C(=O)N3CCCC3)C3(CCCC3)OC2=O)c(C)c1` ?
40

// query: `Cc1cc(C)c(C2=C(OC(=O)C(=O)N3CCCCC3)C3(CCCC3)OC2=O)c(C)c1`
100

One more compound: `Cc1cc(C)c(C2=C(OC(=O)C(=O)Oc3ccccc3)C3(CCCC3)OC2=O)c(C)c1`
100

Would you mind doing `Cc1cc(C)c(C2=C(OC(=O)C(=O)Oc3ccc(Cl)cc3)C3(CCCC3)OC2=O)c(C)c1` as well?
100

====

Tested on: Tetranychus cinnabarinus
Assay Notes: Acaricidal activity against larvae of Tetranychus cinnabarinus (carmine spider mite) in sieva bean leaves assessed as mortality at 0.5 mg/kg at 25 +/-1 degC treated for 3 secs measured after 4 days
Assay type: functional
Run Parameters: 96 h
Experimental Endpoint: mortality at 0.5 mg/kg (%)
Could you give me the number in %? Just the number is fine.

[[record]]
compound = "CCN(C(=O)C(=O)OC1=C(c2c(C)cc(C)cc2C)C(=O)OC12CCCC2)c1ccc(C)cc1C"
target_entity = "Tetranychus cinnabarinus"
value_unit = "%"
measured = 20

[[record]]
compound = "CCN(C(=O)C(=O)OC1=C(c2c(C)cc(C)cc2C)C(=O)OC12CCCC2)c1ccc(C(F)(F)F)cc1"
target_entity = "Tetranychus cinnabarinus"
value_unit = "%"
measured = 40

[[record]]
compound = "CCN(C(=O)C(=O)OC1=C(c2c(C)cc(C)cc2C)C(=O)OC12CCCC2)c1ccccc1"
target_entity = "Tetranychus cinnabarinus"
value_unit = "%"
measured = 60

[[record]]
compound = "Cc1cc(C)c(C2=C(OC(=O)C(=O)Oc3ccc(C(C)(C)C)cc3)C3(CCCC3)OC2=O)c(C)c1"
target_entity = "Tetranychus cinnabarinus"
value_unit = "%"
measured = 40

[[record]]
compound = "Cc1cc(C)c(C2=C(OC(=O)C(=O)Oc3ccccc3)C3(CCCC3)OC2=O)c(C)c1"
target_entity = "Tetranychus cinnabarinus"
value_unit = "%"
measured = 20

[[record]]
compound = "CCN(C(=O)C(=O)OC1=C(c2c(C)cc(C)cc2C)C(=O)OC12CCCC2)c1ccc(Br)cc1"
target_entity = "Tetranychus cinnabarinus"
value_unit = "%"
measured = 50

[[record]]
compound = "Cc1cc(C)c(C2=C(OC(=O)CC(C)(C)C)C3(CCCC3)OC2=O)c(C)c1 [SPIROMESIFEN]"
target_entity = "Tetranychus cinnabarinus"
value_unit = "%"
measured = 90


I would be grateful if you could share the reported mortality at 0.5 mg/kg for `Cc1cc(C)c(C2=C(OC(=O)C(=O)Oc3ccc(Cl)cc3)C3(CCCC3)OC2=O)c(C)c1` .
0

====

Below: a set of entries, each annotated with reported mortality at 5 mg/kg.
System: Tetranychus cinnabarinus
Assay Notes: Acaricidal activity against eggs of Tetranychus cinnabarinus (carmine spider mite) in sieva bean leaves assessed as mortality at 5 mg/kg at 25 +/-1 degC treated for 3 secs measured after 4 days
Assay type: functional
Run Parameters: 96 h
Give the number; % is assumed, so skip it.

[[record]]
chem_smiles = "C#CCOC(=O)C(=O)OC1=C(c2c(C)cc(C)cc2C)C(=O)OC12CCCC2"
experimental_endpoint = "mortality at 5 mg/kg"
measured = 30


Please provide the recorded mortality at 5 mg/kg for `Cc1cc(C)c(C2=C(OC(=O)C(=O)Oc3ccc(C(C)(C)C)cc3)C3(CCCC3)OC2=O)c(C)c1` , tested on Tetranychus cinnabarinus.
90

Try `CCN(C(=O)C(=O)OC1=C(c2c(C)cc(C)cc2C)C(=O)OC12CCCC2)c1ccc(C)cc1C` next.
100

Repeat with `Cc1cc(C)c(C2=C(OC(=O)C(=O)Oc3ccccc3)C3(CCCC3)OC2=O)c(C)c1`
100

Entry to check: `CCN(C(=O)C(=O)OC1=C(c2c(C)cc(C)cc2C)C(=O)OC12CCCC2)c1ccc(Br)cc1`
100

====

Tested on: Tetranychus cinnabarinus
Assay Notes: Acaricidal activity against eggs of Tetranychus cinnabarinus (carmine spider mite) in sieva bean leaves assessed as mortality at 5 mg/kg at 25 +/-1 degC treated for 3 secs measured after 4 days
Type: functional
Run Parameters: 96 h
// mortality at 5 mg/kg lookup, one value per entry
Express the result in % but write the number alone.

Examples with answers:
[[record]]
chem_smiles = "CCOC(=O)C(=O)OC1=C(c2c(C)cc(C)cc2C)C(=O)OC12CCCC2"
measured = 20

[[record]]
chem_smiles = "Cc1cc(C)c(C2=C(OC(=O)C(=O)N(C)c3ccccc3)C3(CCCC3)OC2=O)c(C)c1"
measured = 100

[[record]]
chem_smiles = "Cc1cc(C)c(C2=C(OC(=O)C(=O)N3CCCCC3)C3(CCCC3)OC2=O)c(C)c1"
measured = 100


Quick check: mortality at 5 mg/kg on Tetranychus cinnabarinus, item `Cc1cc(C)c(C2=C(OC(=O)C(=O)N(C(C)C)C(C)C)C3(CCCC3)OC2=O)c(C)c1` ?
100

What do you have for `CCN(C(=O)C(=O)OC1=C(c2c(C)cc(C)cc2C)C(=O)OC12CCCC2)c1ccccc1` ?
100
